Would you kindly list protein stability index for each of these sequences?
test_method_notes: protein stability index of a GFP-peptide fusion (GPS, HEK-293T) (PSI 1-6); higher = more stable;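 note: 24-mer peptide tiles fused after GFP, lentivirally expressed, FACS-sorted into six equal bins by GFP/DsRed ratio, decoded by Illumina sequencing, PSI is the read-weighted mean bin number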
experimental_setup: treatment: DMSO; c terminus: a fixed tail appended
No unit in the answer, only the number.

Prompt: What does the data say about its protein stability index? Entry: TVECYNPRTNEWTYVAKMSEPHYG [KLHL13]
Response: 2.36

Prompt: Which protein stability index reading was recorded for the sequence MYKLSSEQFHEAASKMESTIKPRR [CHCHD6] ?
Response: 3.72

Prompt: Bench note: what protein stability index did SSSSASADLLAGFGGSFMAPSPSP [SNAP91] show?
Response: 4.24

Prompt: Looking for the measured protein stability index of TTSETQKSVQCGTWTKHAEGGIFT [NETO1] , can you help?
Response: 3.59

Prompt: Please look up its protein stability index: CKDSESNKHLCYVFDSEKCVSIPD [GULP1]
Response: 3.27

Prompt: Using the record for PGETRRNSYPRADTGLFSRSKSGS [TRIM29] , report its protein stability index.
Response: 4.73

Prompt: protein stability index lookup needed for VSRREGALGWAPAAPPPLKDDPEG [ZBED3] , thanks.
Response: 5.24

Prompt: Which value of protein stability index has been reported for FIDKEDLKDTYASLGKTNVKDDEL [MYL5] in the records?
Response: 4.8

Prompt: So what's the measured protein stability index for this one? KESLETPSNGRIDIKQLIAKKIKL [SOAT1]
Response: 2.55

Prompt: Item under review: FYPALWPQLRICLRVSPAEQPRLE [FBXO33] . Reported protein stability index?
Response: 2.39

Prompt: Which measured protein stability index value corresponds to GYRGYQYILECDHHGGDYKHWREW [CRYBA1] ?
Response: 2.16

Prompt: Requested field: protein stability index. Item: KERKKREERERKRRKEEEVQQQKL [FAF2]
Response: 5.09

Prompt: Look at this sequence and give its reported protein stability index. PSLQHLCRMSIRRVMPTQEVQELP [WSB1]
Response: 3.34

Prompt: Could you tell me which protein stability index is on file for HSLVRSRHRIPEPEAAVLFRQMAT [TRIB3] ?
Response: 3.18

Prompt: // returns reported protein stability index for input HEEVYFEPSSSKDSDENSKPSVDT [MIA2]
Response: 5.62

Prompt: Look up protein stability index for this sequence: MSLEPQNGTYAGPAPAFQPFFFTG [ANKRD40]
Response: 2.29

Prompt: Quick check: protein stability index of YAATTTPFTPLHIKVKPKRVGIFL [TRIM39] ?
Response: 2.52

Prompt: Query (sequence): LYWTKWYNNQSLGHGSHSFIYYEN [PKD2L1] ; field requested: protein stability index
Response: 2.53

Prompt: So what's the measured protein stability index for this one? LLTIGDANGEIQRHAEQQALRLEV [CARM1]
Response: 3.53

Prompt: I am curious: what protein stability index value has been reported for SGAEGHSHSCYHDTRSGFWYVCRT [TRIM35] ?
Response: 2.45

Prompt: Which protein stability index reading was recorded for the sequence VLYLMMPIVNISEVLGPLCLMLLM [PHTF1] ?
Response: 3.07

Prompt: Field request: protein stability index | item: SKRMTFQMPKFDLGPLLSEPLVLY [MYOZ1]
Response: 2.36

Prompt: // protein stability index lookup, key: GALGMSNRDSYFYAAIVAVVAVHV [VMA21]
Response: 2.77

Prompt: Given SSAPDLMCLSPDRKMEVEELSPLA [CDC25B] , state its recorded protein stability index.
Response: 5

Prompt: Which measured protein stability index value corresponds to LQDIKTAGPQSQVLCGVVMDRSLV [ADD1] ?
Response: 2.98

Prompt: Sample ELNKKMTNIRLPNVPSSSLPAQPN [CHMP4C] — what was its protein stability index?
Response: 3.66

Prompt: Which protein stability index is reported for this sequence? PQAPPASRDEAALPELLLGALPVG [RETREG3]
Response: 4.64
